Taken from PubChem BioAssay AID1963864.

# Test system: KRAS PDC multicell spheroid viability;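 further: drug exposure lasted seven days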
# assay_info: Anticancer human tumor 521955-158-R6-J3-PDC patient-derived pancreatic carcinoma cell line growth inhibition [KRAS2]; active means viability on the fitted dose curve at most 10% of control; inactive means the rest
# condition_context: second compound 10 µM; first compound 0.316 µM
Choose one outcome from this list and give only that: Yes for active, No for inactive

CC1OCC2(CCN(c3cnc(Sc4ccnc(N)c4Cl)c(N)n3)CC2)C1N (stereo not given) + COc1cc2nc(C)nc(NC(C)c3cc(N)cc(C(F)(F)F)c3)c2cc1OC1CCOC1: No
CCN1CCN(Cc2ccc(Nc3ncc(F)c(-c4cc(F)c5nc(C)n(C(C)C)c5c4)n3)nc2)CC1 + COc1cc2nc(C)nc(NC(C)c3cc(N)cc(C(F)(F)F)c3)c2cc1OC1CCOC1: No
O=C(c1cc(Cc2n[nH]c(=O)c3ccccc23)ccc1F)N1CCN(C(=O)C2CC2)CC1 + CC1OCC2(CCN(c3cnc(Sc4ccnc(N)c4Cl)c(N)n3)CC2)C1N: No

Challenge: So what was the verdict on O=C(c1cc(Cc2n[nH]c(=O)c3ccccc23)ccc1F)N1CCN(C(=O)C2CC2)CC1 + C=CC(=O)N1CCN(c2nc(=O)n(-c3c(C)ccnc3C(C)C)c3nc(-c4c(O)cccc4F)c(F)cc23)C(C)C1 in this test?
Response given: No

Challenge: So what was the verdict on O=C(c1cc(Cc2n[nH]c(=O)c3ccccc23)ccc1F)N1CCN(C(=O)C2CC2)CC1 + COc1cc2nc(C)nc(NC(C)c3cc(N)cc(C(F)(F)F)c3)c2cc1OC1CCOC1 in this test?
Response given: No

Challenge: So what was the verdict on CC(=O)OC12COC1CC(O)C1(C)C(=O)C(O)C3=C(C)C(OC(=O)C(O)C(NC(=O)OC(C)(C)C)c4ccccc4)CC(O)(C(OC(=O)c4ccccc4)C21)C3(C)C (stereo not given) + C=CC(=O)N1CCN(c2nc(=O)n(-c3c(C)ccnc3C(C)C)c3nc(-c4c(O)cccc4F)c(F)cc23)C(C)C1 in this test?
Response given: No

Challenge: So what was the verdict on CC1(C)CCC(CN2CCN(c3ccc(C(=O)NS(=O)(=O)c4ccc(NCC5CCOCC5)c([N+](=O)[O-])c4)c(Oc4cnc5[nH]ccc5c4)c3)CC2)=C(c2ccc(Cl)cc2)C1 + COc1cc2nc(C)nc(NC(C)c3cc(N)cc(C(F)(F)F)c3)c2cc1OC1CCOC1 in this test?
Response given: No

Challenge: So what was the verdict on CC1OCC2(CCN(c3cnc(Sc4ccnc(N)c4Cl)c(N)n3)CC2)C1N (stereo not given) + C=CC(=O)N1CCN(c2nc(=O)n(-c3c(C)ccnc3C(C)C)c3nc(-c4c(O)cccc4F)c(F)cc23)C(C)C1 in this test?
Response given: No

Challenge: So what was the verdict on COc1cc2nccc(Oc3ccc(NC(=O)C4(C(=O)Nc5ccc(F)cc5)CC4)cc3)c2cc1OC + CC1OCC2(CCN(c3cnc(Sc4ccnc(N)c4Cl)c(N)n3)CC2)C1N in this test?
Response given: No

Challenge: So what was the verdict on COC(=O)c1ccc2c(C(=Nc3ccc(N(C)C(=O)CN4CCN(C)CC4)cc3)c3ccccc3)c(O)[nH]c2c1 + COc1cc2nc(C)nc(NC(C)c3cc(N)cc(C(F)(F)F)c3)c2cc1OC1CCOC1 in this test?
Response given: Yes
